Target: T1, human CDH6 on cells (human, UniProt P55285 54-790)
T1 sequence: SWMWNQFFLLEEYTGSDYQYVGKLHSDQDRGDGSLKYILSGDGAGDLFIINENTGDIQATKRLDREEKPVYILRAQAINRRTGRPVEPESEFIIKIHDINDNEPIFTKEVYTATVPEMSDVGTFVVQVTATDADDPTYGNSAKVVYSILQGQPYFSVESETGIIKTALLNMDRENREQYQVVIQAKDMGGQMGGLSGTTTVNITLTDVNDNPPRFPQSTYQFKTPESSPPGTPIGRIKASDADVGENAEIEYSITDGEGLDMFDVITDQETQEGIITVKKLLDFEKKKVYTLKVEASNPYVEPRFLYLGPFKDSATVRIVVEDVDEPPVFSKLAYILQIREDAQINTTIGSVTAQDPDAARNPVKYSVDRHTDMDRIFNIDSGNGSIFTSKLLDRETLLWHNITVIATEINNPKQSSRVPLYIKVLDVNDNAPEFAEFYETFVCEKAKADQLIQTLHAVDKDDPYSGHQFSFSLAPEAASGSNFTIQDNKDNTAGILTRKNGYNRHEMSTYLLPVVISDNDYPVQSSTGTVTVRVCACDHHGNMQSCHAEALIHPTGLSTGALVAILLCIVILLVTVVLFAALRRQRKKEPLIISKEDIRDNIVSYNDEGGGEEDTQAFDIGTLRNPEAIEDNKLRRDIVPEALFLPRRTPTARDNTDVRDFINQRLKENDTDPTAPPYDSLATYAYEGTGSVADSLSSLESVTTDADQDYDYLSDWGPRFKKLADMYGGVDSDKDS
Assay: cell-based or functional assay
PROPERTY_LABEL: percent inhibition at 1.22 nM ADC, JHOS4 cells (%)
Give your result in % as a bare value.

// known answers, use as guide
| BINDER | UNITS_SYMBOL | MEASURED_RESULT |
| --- | --- | --- |
| NOV0670-SMCC-DM1 (antibody, human IgG1, lambda, V domains shown, SMCC-DM1 on primary amines, sites not stated) VH: QVQLVQSGAEVKKPGSSVKVSCKASGGTFSSYAISWVRQAPGQGLEWMGGIIPIFGTANYAQKFQGRVTITADESTSTAYMELSSLRSEDTAVYYCARKFPGRGPFAYWGQGTLVTVSS VL: DIVLTQPPSVSGAPGQRVTISCSGSSSNIGSQYVYWYQQLPGTAPKLLIYYNSERPSGMPDRFSGSKSGTSASLAITGLQAEDEADYYCQTWDASSQSFVFGGGTKLTVLG | % | -27.9 |
| NOV0705-SMCC-DM1 (antibody, human IgG1, lambda, V domains shown, SMCC-DM1 on primary amines, sites not stated) VH: QVQLVQSGAEVKKPGESLKISCKGSGYSFTNYWIGWVRQMPGKGLEWMGFIDPGVSYTRYSPSFQGQVTISADKSISTAYLQWSSLKASDTAMYYCARVLAHSTEYNWPAFWGQGTLVTVSS VL: DIVLTQPPSVSGAPGQRVTISCSGSSSNIGLDYVNWYQQLPGTAPKLLIYRNKQRPSGVPDRFSGSKSGTSASLAITGLQAEDEADYYCQAWAGRTNYVVFGGGTKLTVLG | % | 40.4 |

Proceeding to the next binder to report its percent inhibition at 1.22 nM ADC, JHOS4 cells.
What percent inhibition at 1.22 nM ADC, JHOS4 cells value was documented for this binder, NOV0690-SMCC-DM1 (antibody, human IgG1, lambda, V domains shown, SMCC-DM1 on primary amines, sites not stated) VH: QVQLLESGGGLVQPGGSLRLSCAASGFTFSDHAIDWVRQAPGKGLEWVSVIAGDGSITYYADSVKGRFTISRDNSKNTLYLQMNSLRAEDTAVYYCARDTGVYREYMDVWGQGTLVTVSS VL: DIELTQPPSVSVSPGQTASITCSGDAIGTKFAHWYQQKPGQAPVLVIYYDHERPSGIPERFSGSNSGNTATLTISGTQAEDEADYYCYSRASSNLVFGGGTKLTVLG ?
51
